# assayedSystem: Carbonic anhydrase 5B, mitochondrial (Homo sapiens, UniProt Q9Y2D0)
# Sequence (Q9Y2D0 whole entry): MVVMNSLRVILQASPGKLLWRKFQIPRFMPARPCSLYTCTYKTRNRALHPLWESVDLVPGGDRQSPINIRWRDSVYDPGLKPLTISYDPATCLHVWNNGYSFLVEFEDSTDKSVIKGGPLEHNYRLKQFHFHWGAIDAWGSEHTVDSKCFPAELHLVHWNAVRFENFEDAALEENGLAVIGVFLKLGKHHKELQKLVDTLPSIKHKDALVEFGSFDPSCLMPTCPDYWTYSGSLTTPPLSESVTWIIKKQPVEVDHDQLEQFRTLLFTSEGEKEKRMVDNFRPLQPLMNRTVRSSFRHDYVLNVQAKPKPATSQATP
# test: Inhibition of human recombinant carbonic anhydrase 5B preincubated with enzyme for 1 hr prior to testing by phenol red-based stopped-flow CO2 hydration assay
measuredQuantity: Ki (nM)
Reply with just the number (in nM).

compound	Ki [nM]
CC(C)OP(=O)(Oc1ccc(S(N)(=O)=O)cc1)c1ccccc1 (racemic)	19.8

**Query** Please report the recorded Ki for CCN(CC)P(=O)(Oc1ccc(S(N)(=O)=O)cc1)c1ccccc1 (racemic) .
**Result** 49.1

###

Below: a set of entries, each annotated with reported pKi.
# assayedSystem: UniProt:P00915
# Sequence (P00915 whole entry): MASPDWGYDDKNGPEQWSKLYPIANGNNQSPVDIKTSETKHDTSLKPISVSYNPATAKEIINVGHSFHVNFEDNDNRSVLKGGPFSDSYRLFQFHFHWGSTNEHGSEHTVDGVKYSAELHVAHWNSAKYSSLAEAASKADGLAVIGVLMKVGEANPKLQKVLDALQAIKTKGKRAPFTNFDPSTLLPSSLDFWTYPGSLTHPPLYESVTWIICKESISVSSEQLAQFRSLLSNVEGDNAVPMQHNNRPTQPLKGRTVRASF
# test: Inhibition of human recombinant carbonic anhydrase 1 preincubated with enzyme for 1 hr prior to testing by phenol red-based stopped-flow CO2 hydration assay
Formally, pKi is defined as -log10 of the concentration c, with c in mol/L.

molecule	measuredQuantity	reportedResult
NS(=O)(=O)c1ccc(OP(=O)(c2ccccc2)N2CCOCC2)cc1 (racemic)	pKi	6.50
NS(=O)(=O)c1ccc(OP(=O)(Oc2ccc(S(N)(=O)=O)cc2)c2ccccc2)cc1	pKi	6.17
NP(=O)(Oc1ccc(S(N)(=O)=O)cc1)c1ccccc1 (racemic)	pKi	6.71

**Query** Please report the recorded pKi for NS(=O)(=O)c1ccc(OP(=O)(c2ccccc2)N2CCCC2)cc1 (racemic) .
**Result** 6.62

###

# assayedSystem: Carbonic anhydrase 12 (Homo sapiens, UniProt O43570)
# Sequence (O43570 whole entry): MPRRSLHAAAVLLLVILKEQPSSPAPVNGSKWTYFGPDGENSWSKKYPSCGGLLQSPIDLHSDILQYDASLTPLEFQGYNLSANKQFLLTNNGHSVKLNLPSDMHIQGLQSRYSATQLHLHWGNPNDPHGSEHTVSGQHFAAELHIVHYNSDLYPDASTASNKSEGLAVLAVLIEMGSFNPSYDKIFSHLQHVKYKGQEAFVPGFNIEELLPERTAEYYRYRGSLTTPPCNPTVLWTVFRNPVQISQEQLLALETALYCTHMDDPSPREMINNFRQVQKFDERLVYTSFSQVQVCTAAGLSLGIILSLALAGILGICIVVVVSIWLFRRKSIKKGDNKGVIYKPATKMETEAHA
# test: Inhibition of human recombinant carbonic anhydrase 12 preincubated with enzyme for 1 hr prior to testing by phenol red-based stopped-flow CO2 hydration assay
measuredQuantity: Ki (nM)
Reply with just the number (in nM).

Study these solved cases before continuing.
compound	assayedSystem	reportedResult
COP(=O)(Oc1ccc(S(N)(=O)=O)cc1)c1ccccc1 (racemic)	Carbonic anhydrase 12 (Homo sapiens, UniProt O43570)	47.2
NS(=O)(=O)c1ccc(OP(=O)(c2ccccc2)N2CCCC2)cc1 (racemic)	Carbonic anhydrase 12 (Homo sapiens, UniProt O43570)	58.1
NS(=O)(=O)c1ccc(OP(=O)(Nc2ccccc2)c2ccccc2)cc1 (racemic)	Carbonic anhydrase 12 (Homo sapiens, UniProt O43570)	20.9

**Query** Form entry - test system: Carbonic anhydrase 12 (Homo sapiens, UniProt O43570); read-out: Ki; compound: CCOP(=O)(Oc1ccc(S(N)(=O)=O)cc1)c1ccccc1 (racemic)
**Result** 22.4

**Query** Form entry - test system: Carbonic anhydrase 12 (Homo sapiens, UniProt O43570); read-out: Ki; compound: CCN(CC)P(=O)(Oc1ccc(S(N)(=O)=O)cc1)c1ccccc1 (racemic)
**Result** 46.8

###

Below: a set of entries, each annotated with reported Ki.
# assayedSystem: Carbonic anhydrase 5A, mitochondrial (Homo sapiens)
# Sequence (P35218 whole entry): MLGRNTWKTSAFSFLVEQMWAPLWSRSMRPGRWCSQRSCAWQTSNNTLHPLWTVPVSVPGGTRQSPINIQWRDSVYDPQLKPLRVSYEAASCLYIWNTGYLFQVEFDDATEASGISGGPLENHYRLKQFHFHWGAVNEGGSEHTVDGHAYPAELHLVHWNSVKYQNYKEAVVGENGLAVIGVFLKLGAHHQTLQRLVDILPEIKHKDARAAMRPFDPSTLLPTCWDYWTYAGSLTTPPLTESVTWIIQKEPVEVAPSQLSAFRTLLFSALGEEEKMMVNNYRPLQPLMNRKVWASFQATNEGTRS
# test: Inhibition of human recombinant carbonic anhydrase 5A preincubated with enzyme for 1 hr prior to testing by phenol red-based stopped-flow CO2 hydration assay

Study these solved cases before continuing.
compound	Ki
NS(=O)(=O)c1ccc(OP(=O)(Sc2ccccc2)c2ccccc2)cc1 (racemic)	382 nM
COCCOP(=O)(Oc1ccc(S(N)(=O)=O)cc1)c1ccccc1 (racemic)	59.3 nM
CC(C)OP(=O)(Oc1ccc(S(N)(=O)=O)cc1)c1ccccc1 (racemic)	101 nM
CCOP(=O)(Oc1ccc(S(N)(=O)=O)cc1)c1ccccc1 (racemic)	143 nM
NS(=O)(=O)c1ccc(OP(=O)(Oc2ccc(S(N)(=O)=O)cc2)c2ccccc2)cc1	284 nM
COP(=O)(Oc1ccc(S(N)(=O)=O)cc1)c1ccccc1 (racemic)	51.7 nM
NS(=O)(=O)c1ccc(OP(=O)(Nc2ccccc2)c2ccccc2)cc1 (racemic)	185 nM

Let us examine a further case.
**Query** Please report the recorded Ki for C#CCO[P@@](=O)(Oc1ccc(S(N)(=O)=O)cc1)c1ccccc1 .
**Result** 66.5 nM

###

# assayedSystem: Carbonic anhydrase 5B, mitochondrial (Homo sapiens, UniProt Q9Y2D0)
# test: Inhibition of human recombinant carbonic anhydrase 5B preincubated with enzyme for 1 hr prior to testing by phenol red-based stopped-flow CO2 hydration assay
measuredQuantity: pKi
Formally, pKi is defined as -log10 of the concentration c, with c in mol/L.

Study these solved cases before continuing.
molecule	reportedResult
NS(=O)(=O)c1ccc(OP(=O)(SCc2ccccc2)c2ccccc2)cc1 (racemic)	7.23
CCCCCCCCCCCCSP(=O)(Oc1ccc(S(N)(=O)=O)cc1)c1ccccc1 (racemic)	6.65
NS(=O)(=O)c1ccc(OP(=O)(O)c2ccccc2)cc1	7.28
CCCNP(=O)(Oc1ccc(S(N)(=O)=O)cc1)c1ccccc1 (racemic)	7.47
NS(=O)(=O)c1ccc(OP(=O)(c2ccccc2)N2CCCC2)cc1 (racemic)	7.59
C#CCO[P@](=O)(Oc1ccc(S(N)(=O)=O)cc1)c1ccccc1	7.72
CCSP(=O)(Oc1ccc(S(N)(=O)=O)cc1)c1ccccc1 (racemic)	7.01
NS(=O)(=O)c1ccc(OP(=O)(Nc2ccccc2)c2ccccc2)cc1 (racemic)	7.62

**Query** Please report the recorded pKi for NS(=O)(=O)c1ccc(OP(=O)(NCc2ccccc2)c2ccccc2)cc1 (racemic) .
**Result** 7.16

**Query** Please report the recorded pKi for NS(=O)(=O)c1ccc(OP(=O)(Oc2ccc(S(N)(=O)=O)cc2)c2ccccc2)cc1 .
**Result** 7.82

**Query** Please report the recorded pKi for NP(=O)(Oc1ccc(S(N)(=O)=O)cc1)c1ccccc1 (racemic) .
**Result** 7.90

**Query** Please report the recorded pKi for NS(=O)(=O)c1ccc(OP(=O)(c2ccccc2)N2CCOCC2)cc1 (racemic) .
**Result** 7.56

**Query** Please report the recorded pKi for C#CCO[P@@](=O)(Oc1ccc(S(N)(=O)=O)cc1)c1ccccc1 .
**Result** 7.18

**Query** Please report the recorded pKi for COP(=O)(Oc1ccc(S(N)(=O)=O)cc1)c1ccccc1 (racemic) .
**Result** 7.61

**Query** Please report the recorded pKi for C#CCOP(=O)(Oc1ccc(S(N)(=O)=O)cc1)c1ccccc1 (racemic) .
**Result** 7.42

**Query** Please report the recorded pKi for NS(=O)(=O)c1ccc(OP(=O)(Sc2ccccc2)c2ccccc2)cc1 (racemic) .
**Result** 7.54

###

Below: a set of entries, each annotated with reported Ki.
# assayedSystem: Carbonic anhydrase 5B, mitochondrial (Homo sapiens)
# test: Inhibition of human recombinant carbonic anhydrase 5B preincubated with enzyme for 1 hr prior to testing by phenol red-based stopped-flow CO2 hydration assay

Study these solved cases before continuing.
molecule	Ki
CCOP(=O)(Oc1ccc(S(N)(=O)=O)cc1)c1ccccc1 (racemic)	40.1 nM
NS(=O)(=O)c1ccc(OP(=O)(Oc2ccccc2)c2ccccc2)cc1 (racemic)	22.7 nM
CN1CCN(P(=O)(Oc2ccc(S(N)(=O)=O)cc2)c2ccccc2)CC1 (racemic)	47.3 nM

Let us examine a further case.
**Query** Please report the recorded Ki for COCCOP(=O)(Oc1ccc(S(N)(=O)=O)cc1)c1ccccc1 (racemic) .
**Result** 67.2 nM
